- Test Description: Selectivity index, ratio of CC50 for mouse J774A1 cells to IC50 for Leishmania donovani MHOM/IN/Dd8 amastigote
- Format: functional, J774.A1
Catalogue of molecules with associated Ratio CC50/IC50

Consider the following illustrative entries.
1. COC(=O)C1=C(C)N(c2ccc(Cl)cc2)C(C)=C(C(=O)OC)C1[C@@H]1O[C@H]2OC(C)(C)O[C@H]2[C@@H]1OCc1ccccc1    1.109
2. CCOC(=O)C1=C(C)N(c2ccc(OC)cc2)C(C)=C(C(=O)OCC)C1[C@@H]1O[C@H]2OC(C)(C)O[C@H]2[C@@H]1OCc1ccccc1    7.42
3. COC(=O)C1=C(C)N(c2ccc(Cl)cc2)C(C)=C(C(=O)OC)C1[C@@H]1O[C@H]2OC(C)(C)O[C@H]2[C@@H]1OC    4.32
4. COC(=O)C1=C(C)N(c2ccc(Cl)cc2)C(C)=C(C(=O)OC)C1[C@@H]1O[C@H]2OC(C)(C)O[C@H]2[C@@H]1O    9.21
5. COC(=O)C1=C(C)N(c2ccc(OC)cc2)C(C)=C(C(=O)OC)C1[C@@H]1O[C@H]2OC(C)(C)O[C@H]2[C@@H]1OC    4.21

Need Ratio CC50/IC50 of CCCCCCCCCCCCCCCCOP(=O)([O-])OCC[N+](C)(C)C , thanks.
2.58

Let us now turn to COC(=O)C1=C(C)N(c2ccc(Br)cc2)C(C)=C(C(=O)OC)C1[C@@H]1O[C@H]2OC(C)(C)O[C@H]2[C@@H]1OC
13.58
